METHOD NOTES: protein stability index of a GFP-peptide fusion (GPS, HEK-293T) (PSI 1-6); higher = more stable;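 also: 24-mer peptide tiles fused after GFP, lentivirally expressed, FACS-sorted into six equal bins by GFP/DsRed ratio, decoded by Illumina sequencing, PSI is the read-weighted mean bin number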
MEASUREMENT SETUP: treatment: MLN4924 1 uM, 8 h; c terminus: a fixed tail appended
OBSERVATION TYPE: protein stability index

> print(dat)
                                  chain  recorded.number
 1     MIGLYEPELGSGAGPAGTGTPSLL [EMID1]             3.65
 2      TECEPSELFQLQTYSLPPFLKAVL [CDS1]             2.56
 3      DWLRRPLGEDNQPETQLFWDKEPW [TLE6]             3.22
 4      PSNTGSRTTSVRCRGIPRGPVRPA [NEK8]                4
 5    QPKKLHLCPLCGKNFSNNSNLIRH [ZNF263]             3.37
 6     GFVMVPFEYRGEQHKTCMLNATSK [EDNRA]             2.75
 7   KSWHDMQTTTAYKKTHETLSHAGQ [TPD52L1]             3.96
 8     IKNLYAFNLFCQKRFDESMQVFAK [VPS39]             1.96
 9    FNFVSTPKCSCGQLAAVHLSKSRT [RNF180]             2.05
10     SEEMIAEFKAAFDMFDADGGGDIS [TNNC2]             5.11
11    EVKGTLEGDVCGVEPPGPGDTVVQ [PBXIP1]             5.37
12     KSEGQKIPKVELQISIYGVKILEP [GULP1]              2.3
13   QVVVLVRDNGDPSLSSTATVLLVL [PCDHGC5]             3.17
14      PAFVKFAYVAEREDELSLVKGSRV [NCK2]             3.08
15      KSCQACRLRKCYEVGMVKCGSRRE [ESR2]              3.1
16    VGELNGYLRDSSPAPCADGPAGGL [PWWP2B]             4.16
17     CCSRYLCMGAMSLFLPCLLCYPPA [SPRY1]             2.58
18     NNLTDRIVVIPGKVEEVSLPEQVD [CARM1]             5.27
19     LPESGLLSVLQIAQQDLAPDPDAW [FANCE]             4.01
20     YQPLVTMDDAMERTVQSFRHLRRV [NSDHL]             3.22
21  LKDFTLNETVNSIFAQGAPRSSLA [ADAMTSL2]             3.26
22  CRETGSFLDLFRYRVLLGHTLILM [SLC22A15]             2.45
23      RCLHMFLQDEIIDKSYTPSKIRHA [SNX3]             1.92
24     ELIKWRAAIVVNGHGMTPLKVAAE [FEM1B]             2.15
25     ARAEQEEEFISNTLFKKIQALQKE [CCDC6]             3.77
26      HKTAGKRYVYRFVCDLQSLLGYTP [ETS1]             2.66
27      NKNSTDVKGCSMYVALFPCNECAK [DCTD]             2.13
28     RQLMKVVNEMCPNITRIYNIGKSH [CPXM2]             2.71
29  PDEANVGKHPKDKTEDENKQSFLD [TOR1AIP2]             5.75
30    DSEFSMQEPMVPAKLGTQAEKDRR [PPFIA4]             5.65
31     VPERLLVVLDMEEGTLGYAIGGTY [SPSB2]             2.35
32   KGYTPLHAAASNGQINVVKHLLNL [ANKRD44]             2.69
33     LVTYTNRYIIFKRNTLNQPCSGSV [GMCL1]             2.07
34     PDVTQQLLQKYNMQFLIRSHECKP [PPEF2]             2.71
35      SEEALRADGFGDNPFYHCLVAEIL [SAT2]             3.26
36     ELVVIIGWAKHIPGFSTLSLADQM [ESRRG]             2.67
37     LEGWRPDQLYRRKKDNHALVRETD [ELOA2]             4.57
38     GKLLLRLPSLRTVSSSVIEQLFFV [NR2F2]             2.83
39  LTCDSSTSSSDDDEEVSGSSKTIT [C18orf25]             5.46
40      RIKIRQCIGLQNLKLLDELPIAKV [ASB7]             2.19
41    EAVPEGPDGGGPWLEDEPGRGAQG [ZSWIM9]             5.56
42  SLIPPRSEQLVNFTGKAEMGGPFS [TMEM106C]             3.47
43       AGFQDIPKRCLKAREHFGTVKTHL [TSN]             2.78
44    LGVQTGGPGGRRAGEPGHSPADYL [DYRK1B]              4.3
45    ADCVRGPDGVCLSGGRGPQGDKAI [PBXIP1]             4.78
46     EEANADLEVKIHDWYQKQTPTSPE [KRT15]             5.29
47    DPGLWSRLCRLAGASSPAAYDEAL [ZSWIM9]             2.78
48     RIDELIESGKEEGMKIDLIDGKGR [KMT5A]             4.85
49   RRSRDPGYDHLWDETLSSSHQKCP [PLEKHN1]             4.04
50   RQLRRRALHPERAMDNHSDSEEEL [RETREG3]             5.51
51     SNHVDDFTTFRGTELSFLVTTHQP [EDNRA]              2.8
52    AAAHYTGDKASPDQNASTHTPQSS [CLINT1]             5.52
53      RRNPELQEELQIQAAVAAGDVHTV [ASB7]             4.82
